Recorded values, source the SangsterLogP compilation.

test: method code SF-AS, from DOI: 10.1016/s0045-6535(98)00368-3
measured-metric: logP

>>> print(df.to_string())
      smiles_code  reported_value
0  COc1cc(OC)ncn1            0.96

====

Parameter logP: see the listing below.
measured-metric: logP

In [3]: df
Out[3]:
                                   molecule  reported_value
0  CC1(C)Oc2ccc(C#N)cc2C(N2CCCC2=O)C1O (configuration not stated)             2.1
1  CC(=O)CC(c1ccccc1)c1c(O)c2ccccc2oc1=O (configuration not stated)             2.4

====

assay: method code …, from Wang, X.; Song, H. (1996). Determination of octanol-water partition coefficients of organic pollutants by using the dynamic coupled-column liquid chromatographic technique. Transactions of Tianjin …
measured-metric: logP

                                   compound  reported_value
0  ClC1(Cl)C2(Cl)C3(Cl)C4(Cl)C(Cl)(Cl)C5(Cl)C3(Cl)C1(Cl)C5(Cl)C24Cl (stereo unspecified)            6.69

====

measured-metric: logP

In [3]: df
Out[3]:
                              smiles_code  measured_metric  reported_value
0  O=C(CCCCCO[N+](=O)[O-])Oc1ccccc1C(=O)O             logP            2.49
1    O=C(CCCO[N+](=O)[O-])Oc1ccccc1C(=O)O             logP            1.95

====

Parameter logP: see the listing below.
measured-metric: logP

In [3]: df
Out[3]:
                                   molecule  reported_value
0  CC12C=CC(CCC(=O)O)(OO1)c1ccccc12 (stereo not given)            1.19
1  CC12C=CC(CCS(N)(=O)=O)(OO1)c1ccccc12 (stereo not given)            1.66
2  COC(=O)CCC12C=CC(CCC(=O)OC)(OO1)c1ccccc12            2.08
3  COC(=O)CCC12C=CC(C)(OO1)c1ccccc12 (stereo not given)            2.13
4  COC(=O)CCC1=CC2(CCC(=O)OC)OOC1(C)c1ccccc12 (stereo not given)            2.06

====

assay: method code SF-GLC, from DOI: 10.1021/je970069v
measured-metric: logP

>>> df
              smiles_code  measured_metric  reported_value
0  Cc1ccc(C(C)C)c(Cl)c1Cl             logP             5.5

====

experiment: method code SF-AS, from DOI: 10.1562/0031-8655(2002)076<0127:dlbcop>2.0.co;2, PMID: 12194207; details: pH 7.3
measured-metric: logD

>>> print(df.to_string())
                                smiles_code  reported_value
0  COC(=O)CCC1=C(C)c2cc3cc(C)c(cc4cc(C)c(cc5nc(cc1n2)C(CCC(=O)OC)=C5C)[nH]4)[nH]3            3.95

====

experiment: method code SF-AS, from DOI: 10.1007/bf02922495
Parameter logP: see the listing below.
measured-metric: logP

In [3]: df
Out[3]:
                  smiles_code  measured_metric  reported_value
0      N#CC(C#N)=Cc1ccc(Cl)o1             logP            2.17
1    COC(=O)/C(C#N)=C/c1ccco1             logP            1.75
2          N#CC(C#N)=Cc1ccco1             logP             1.5
3  COC(=O)C(C#N)=Cc1ccc(Cl)o1             logP             2.4

====

measured-metric: logP

>>> print(df.to_string())
                                smiles_code  measured_metric  reported_value
0  COc1ccc2c3c1O[C@H]1[C@@H](O)C=C[C@H]4[C@@H](C2)N(C)CC[C@@]341             logP            1.22

====

assay: method code SF-LC/MS, from DOI: 10.1021/jm4008714, PMID: 23919803; details: pH 7.4
measured-metric: logD

In [3]: df
Out[3]:
                           smiles_code  measured_metric  reported_value
0  Cn1c(=O)nc(-c2ccccc2)c2oc3ccccc3c21             logD             2.8

====

assay: method code SF, from DOI: 10.1021/jm020886c, PMID: 12852752; conditions: pH 7.4
measured-metric: logD

                                smiles_code  measured_metric  reported_value
0  CN(CCCSCCOCCc1ccccc1)CCc1ccc(O)c2[nH]c(=O)sc12             logD            3.53
1  CC(C)(CNCCc1ccc(O)c2[nH]c(=O)sc12)CSCCOCCc1ccccc1             logD            3.44
2  CN(CCCNCCc1ccc(O)c2[nH]c(=O)sc12)S(=O)(=O)CCCOCCc1ccccc1             logD            1.24
3  O=c1[nH]c2c(O)ccc(CCNCCCS(=O)(=O)CCOCCc3ccccc3)c2s1             logD            1.13
4  O=c1[nH]c2c(O)ccc(CCNCCCS(=O)(=O)CCCOCc3ccccc3)c2s1             logD            1.34

====

Parameter logP: see the listing below.
measured-metric: logP

>>> print(df.to_string())
                                   compound  reported_value
0  NS(=O)(=O)c1cc2c(cc1Cl)N=C(CSCc1ccccc1)NS2(=O)=O            1.73
1  COc1ccc(CCN2CCC(Nc3nc4ccccc4n3Cc3ccc(F)cc3)CC2)cc1             5.7
2               CCCCOc1ccc(OCCCN2CCOCC2)cc1            3.56
3  CNC1CCC(c2ccc(Cl)c(Cl)c2)c2ccccc21 (centres undefined)             4.3

====

assay: method code SF-AS, from DOI: 10.1021/jm00163a043, PMID: 2153206; conditions: pH 7.0
Label Met when logD >= -0.07; otherwise Not met.

>>> df
                                   compound  label_value
0  Cc1cn([C@H]2CC[C@@H](CO)O2)c(=O)[nH]c1=S          Met
1     O=c1[nH]c(=S)ccn1[C@H]1CC[C@@H](CO)O1      Not met
2      Nc1ccn([C@H]2C=C[C@@H](CO)O2)c(=O)n1      Not met
3  Nc1ccn(C2CC(O)C(CO)O2)c(=O)n1 (stereo not given)      Not met

====

Parameter logP: see the listing below.
assay: method code SF-GLC, from DOI: 10.1002/jps.2600600712, PMID: 4398902
measured-metric: logP

>>> print(df.to_string())
     smiles_code  reported_value
0  O=C1CCCCCCCN1            0.67
1   O=C1CCCCCCN1            0.24

====

measured-metric: logP

                smiles_code  reported_value
0  c1cc2ccc1CCc1ccc(cc1)CC2            4.61

====

experiment: method code SF, from DOI: 10.1021/jm00079a001, PMID: 1732531; conditions: pH 7.4
measured-metric: logD

>>> print(df.to_string())
                                   compound  measured_metric  reported_value
0  C=CCC(NC(=O)C(Cc1ccccc1)NS(=O)(=O)N1CCOCC1)C(=O)NC(CC1CCCCC1)C(=O)C(F)(F)C(=O)NCC(C)CC (stereo unspecified)             logD            4.63

====

measured-metric: logP

In [3]: df
Out[3]:
                                smiles_code  measured_metric  reported_value
0                    Clc1cccc2c1Oc1ccccc1O2             logP            4.75
1  Clc1cc2c(c(Cl)c1Cl)Oc1c(Cl)c(Cl)c(Cl)c(Cl)c1O2             logP             8.2

====

Parameter logP: see the listing below.
measured-metric: logP

>>> print(df.to_string())
                                   compound  measured_metric  reported_value
0  CCCC(CO)N1C=NC2C(N)=NC=NC21 (configuration not stated)             logP            0.66
1                                   CCCCOCC             logP            2.03
